Reference for the values: PubChem BioAssay (NCATS)

# experimentNotes: qHTS of pediatric cancer cell lines to identify multiple opportunities for drug repurposing: Primary screen for A673 cells (AID 1347092); also: nearly all actives have a fitted effect of over 45% in size
# setupConditions: A673 Ewing sarcoma viability, CellTiter-Glo ATP luminescence, 48 h; series mostly up to 46 µM
Results filed as inconclusive are left out. Calls of active or inactive are those of the source. Calls follow the shape of the dose curve; as a rule, active = well fitted cell-killing curve with a large enough effect; inconclusive = small, poorly fitted or top-dose-only effect; inactive = no such curve, though single readings can be large or run the other way.
Labels: active, inactive

1) C[C@@H](N)c1ccc(C(=O)Nc2ccnc3[nH]ccc23)cc1	active
2) Cc1ccccc1C(C(=O)NC1CCCCC1)N(C(=O)CNc1ccc(C#N)cc1)c1cccc(F)c1 (stereo unspecified)	inactive
3) CCC(=O)N1CCN(c2ccc(-n3c(=O)ccc4cnc5ccc(-c6cnc7ccccc7c6)cc5c43)cc2C(F)(F)F)CC1	active
4) O=C(CO)N1CCC(c2[nH]nc(-c3ccc(Cl)cc3)c2-c2ccncn2)CC1	inactive
5) Cc1ccc(S(=O)(=O)OCC(=O)Nc2ccc(C(=O)O)c(O)c2)cc1	active
6) COc1ccc(-c2ccc3ncc4c(c3c2)n(-c2ccc(N3CCNCC3)c(C(F)(F)F)c2)c(=O)n4C)cn1	active
7) O=C(O)Cc1cccc(OCCCN(Cc2cccc(C(F)(F)F)c2Cl)CC(c2ccccc2)c2ccccc2)c1	active
8) CN(C)c1nc(Cc2ccc(NC(=O)c3ccc(C(F)(F)F)cc3)cc2)nc(N(C)C)c1CC(=O)O	inactive
9) O=c1[nH]nc(OCCCc2ccc(Cl)cc2)c(NCc2cccnc2)c1Br	active
10) Cc1ccc(C(=O)N(CCCN)[C@@H](c2oc3cc(Cl)ccc3c(=O)c2Cc2ccccc2)C(C)C)cc1	active
11) C[C@]12CC[C@@H]3c4ccc(O)cc4CC[C@H]3[C@H]1[C@@H](O)[C@@H](O)[C@H]2O	active
12) C=C1c2cccc(O)c2C(O)=C2C(=O)[C@@]3(O)C(O)=C(C(N)=O)C(=O)[C@@H](N(C)C)[C@@H]3[C@@H](O)[C@H]12	active
13) Cc1c(-c2cccc3c(CCCOc4cccc5ccccc45)c(C(=O)O)n(Cc4cccnc4)c23)c(COc2ccc(N3CCN([S+](=O)([O-])N(C)C)CC3)cc2)nn1C	active
14) O[C@@H](COc1cccc2ncccc12)CN1CCN(C2c3ccccc3[C@@H]3[C@H](c4ccccc42)C3(F)F)CC1 (stereo partly specified)	active
15) NS(=O)(=O)c1ccc(Nc2nc(OCC3CCCCC3)c3[nH]cnc3n2)cc1	active
16) CC[C@H]1OC(=O)[C@H](C)[C@@H](O[C@H]2C[C@@](C)(OC)[C@@H](O)[C@H](C)O2)[C@H](C)[C@@H](O[C@@H]2O[C@H](C)C[C@H](N(C)C)[C@H]2O)[C@](C)(O)C[C@H](C)C(=NOCOCCOC)[C@H](C)[C@@H](O)[C@]1(C)O	inactive

----------
# experimentNotes: qHTS for identification of novel therapeutic agents for treatment of microphthalmiaassociated transcription factor (MiT) renal cell carcinoma (RCC) (AID 1963991)
# setupConditions: TFE3-RCC UOK109 viability, CellTiter-Glo, 48 h; measured here: UOK109 Z-AUC; stronger effect = lower value
Inconclusive results are not listed.
Threshold 0.8: z-score strictly smaller gives Met, otherwise Not met.

1) C[C@H]1COC2=C1C(=O)C(=O)c1c2ccc2c1CCCC2(C)C	Met
2) CC(C)C[C@@H](N)[C@H](O)C(=O)N[C@H](C(=O)N[C@H](C(=O)N[C@@H](CC(=O)O)C(=O)O)C(C)C)C(C)C	Met
3) NS(=O)(=O)c1cc(Cl)c(Cl)c(S(N)(=O)=O)c1	Not met
4) CC(C)c1onc(-c2c(Cl)cccc2Cl)c1COc1ccc(C=Cc2cccc(C(=O)O)c2)c(Cl)c1	Not met
5) CC1(C)[C@H]2CC[C@]3(C)[C@@H](C(=O)C=C4[C@@H]5C[C@@](C)(C(=O)O)CC[C@]5(C)CC[C@]43C)[C@@]2(C)CC[C@@H]1O	Met
6) C=C1c2cccc(O)c2C(O)=C2C(=O)[C@@]3(O)C(O)=C(C(N)=O)C(=O)[C@@H](N(C)C)[C@@H]3[C@@H](O)[C@H]12	Not met
7) COc1ccc(-c2ccc3ncc4c(c3c2)n(-c2ccc(N3CCNCC3)c(C(F)(F)F)c2)c(=O)n4C)cn1	Met
8) CC[C@H](C=C[C@@H](C)[C@H]1CC[C@H]2[C@@H]3CC=C4C[C@@H](O)CC[C@]4(C)[C@@H]3CC[C@]12C)C(C)C	Not met
9) CS(=O)(=O)c1ccc(C2=C(c3ccccc3)C(=O)OC2)cc1	Met
10) C[C@]12C=CC(=O)C=C1CC[C@@H]1[C@@H]2[C@@H](O)C[C@@]2(C)[C@@H]1CC[C@]2(O)C(=O)CO	Met
11) NC[C@H]1O[C@H](O[C@@H]2[C@@H](O)[C@@H](O[C@H]3O[C@H](CO)[C@@H](O)[C@H](N)[C@@H]3O)[C@H](N)C[C@@H]2N)[C@H](O)[C@@H](O)[C@H]1O	Not met
12) CO[C@H]1/C=C\O[C@@]2(C)Oc3c(C)c(O)c4c(O)c(c(C=NN5CCN(C6CCCC6)CC5)c(O)c4c3C2=O)NC(=O)C(C)=CC=C[C@H](C)[C@H](O)[C@@H](C)[C@@H](O)[C@@H](C)[C@H](OC(C)=O)[C@H]1C	Met
13) FC(F)(F)c1ccc(C=Cc2nc(COc3ccc(CCCCn4ccnn4)cc3)co2)cc1	Met
